Parameter minimal effective dose: see the listing below.
- Test system: Chronic Inflammation (adjuvant arthritis)
- Test method notes: Effect on Chronic Inflammation (adjuvant arthritis, method of Newbould)
- Type: in vivo, male Lewis rats
- Run parameters: Rattus norvegicus, po; adjuvant arthritis rats, p.o. once a day from 15th to 24th day, decrease of foot volume vs 15th day; read-out: MED, Pharmacological Experiment (3), chronic inflammation
Reported metric: minimal effective dose (mg/kg)

{"Item smiles": "CC(C)(C)c1cc(-c2nn(CCO)c3ncccc23)cc(C(C)(C)C)c1O", "Reported metric": "minimal effective dose", "Numeric readout": 3}
{"Item smiles": "CC(=O)OCCn1nc(-c2cc(C(C)(C)C)c(O)c(C(C)(C)C)c2)c2cccnc21", "Reported metric": "minimal effective dose", "Numeric readout": 0.3}
{"Item smiles": "CCOC(=O)CCn1nc(-c2cc(C(C)(C)C)c(O)c(C(C)(C)C)c2)c2cccnc21", "Reported metric": "minimal effective dose", "Numeric readout": 1}
{"Item smiles": "CCC(=O)OCCn1nc(-c2cc(C(C)(C)C)c(O)c(C(C)(C)C)c2)c2cccnc21", "Reported metric": "minimal effective dose", "Numeric readout": 0.3}
{"Item smiles": "Cn1nc(-c2cc(C(C)(C)C)c(O)c(C(C)(C)C)c2)c2cccnc21", "Reported metric": "minimal effective dose", "Numeric readout": 0.3}
